Readings of pKd for the listed binders
- target.under.test: T1, human IL-23 (human, UniProt Q9NPF7 20-189; P29460 23-328)
- T1 construct: Bought recombinant heterodimeric cytokine (eBioscience 34-8239-85 for panning; R&D Systems for the splenocyte assay); also called hIL-23; hIL23
- T1 sequence (looked up) 1: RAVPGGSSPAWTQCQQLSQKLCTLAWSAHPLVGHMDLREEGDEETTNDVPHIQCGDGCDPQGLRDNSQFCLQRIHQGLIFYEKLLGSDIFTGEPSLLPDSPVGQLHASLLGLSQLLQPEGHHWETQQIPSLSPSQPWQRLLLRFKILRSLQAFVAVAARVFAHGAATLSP
- T1 sequence (looked up) 2: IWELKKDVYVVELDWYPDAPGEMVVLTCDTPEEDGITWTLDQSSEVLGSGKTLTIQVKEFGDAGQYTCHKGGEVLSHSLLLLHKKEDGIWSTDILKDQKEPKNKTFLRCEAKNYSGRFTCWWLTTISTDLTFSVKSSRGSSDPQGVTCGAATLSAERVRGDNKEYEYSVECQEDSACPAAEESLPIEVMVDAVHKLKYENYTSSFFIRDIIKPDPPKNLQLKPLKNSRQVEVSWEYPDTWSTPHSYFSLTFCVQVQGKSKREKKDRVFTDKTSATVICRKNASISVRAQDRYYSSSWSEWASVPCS
- assay.method.text: equilibrium ELISA, soluble polypeptide
As a rule, pKd stands for the negative log10 of the concentration, concentration in M.

| binder | pKd |
| --- | --- |
| MB9 (designed binder) MSIQQIQKEITNIQEVIAAIQKWIYTMTGGSGGSGGMSIEEIQKQIAAIQCQIAAIQKQIYAMTGSGGGGSGGSGGGGSGMSIEEIQKQIAAIQNQILAIYKQIMAMGS | 9.57 |

Input line: So what's the measured pKd for this one? MA23 (designed binder) MSIQQIQKEIANIQEVIAAIQKWIYLMTGGSGGSGGMSIEEIQKQIAAIQCQIAAIQKQIYAMTGSGGGGSGMSIEEIQKQIAAIQEQIVAIYKQIMAMPS
Output line: 9.54

These measurements were taken from patent US20150266925A1.
